System: HeLa Kyoto;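 also: synchronized HeLa Kyoto cells (double thymidine block for G1/S, nocodazole release for mitosis), protein amounts in NP-40 versus SDS lysates quantified by mass spectrometry, three biological replicates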
Experiment: solubility change mitosis vs G1/S (difference of NP-40 vs SDS log2 ratios) (log2 ratio difference); higher = more soluble in mitosis
OBSERVED PROPERTY: solubility change mitosis (log2)
Please state the value as a number alone, without comment.

| SEQ TEXT | solubility change mitosis (log2) |
| --- | --- |
| MGRLDGKVIILTAAAQGIGQAAALAFAREGAKVIATDINESKLQELEKYPGIQTRVLDVTKKKQIDQFANEVERLDVLFNVAGFVHHGTVLDCEEKDWDFSMNLNVRSMYLMIKAFLPKMLAQKSGNIINMSSVASSVKGVVNRCVYSTTKAAVIGLTKSVAADFIQQGIRCNCVCPGTVDTPSLQERIQARGNPEEARNDFLKRQKTGRFATAEEIAMLCVYLASDESAYVTGNPVIIDGGWSL [BDH2] | -0.101 |
| MSASVVSVISRFLEEYLSSTPQRLKLLDAYLLYILLTGALQFGYCLLVGTFPFNSFLSGFISCVGSFILAVCLRIQINPQNKADFQGISPERAFADFLFASTILHLVVMNFVG [DAD1] | -0.257 |
| MAAAEAGGDDARCVRLSAERAQALLADVDTLLFDCDGVLWRGETAVPGAPEALRALRARGKRLGFITNNSSKTRAAYAEKLRRLGFGGPAGPGASLEVFGTAYCTALYLRQRLAGAPAPKAYVLGSPALAAELEAVGVASVGVGPEPLQGEGPGDWLHAPLEPDVRAVVVGFDPHFSYMKLTKALRYLQQPGCLLVGTNMDNRLPLENGRFIAGTGCLVRAVEMAAQRQADIIGKPSRFIFDCVSQEYGINPERTVMVGDRLDTDILLGATCGLKTILTLTGVSTLGDVKNNQESDCVSKKKMVPDFYVDSIADLLPALQG [PGP] | -0.00434 |

From here, focus on the item given below.
Query: If you can, please state the reported solubility change mitosis (log2) value of MAEQEPTAEQLAQIAAENEEDEHSVNYKPPAQKSIQEIQELDKDDESLRKYKEALLGRVAVSADPNVPNVVVTGLTLVCSSAPGPLELDLTGDLESFKKQSFVLKEGVEYRIKISFRVNREIVSGMKYIQHTYRKGVKIDKTDYMVGSYGPRAEEYEFLTPVEEAPKGMLARGSYSIKSRFTDDDKTDHLSWEWNLTIKKDWKD [ARHGDIA] .
Reply: -0.109
